# tested.system: PD-1/PD-L1 interaction (Homo sapiens, UniProt Q9NZQ7)
# Construct: Jurkat cells (PD-1 plus NFAT-luciferase)
# Sequence (Q9NZQ7 19-290): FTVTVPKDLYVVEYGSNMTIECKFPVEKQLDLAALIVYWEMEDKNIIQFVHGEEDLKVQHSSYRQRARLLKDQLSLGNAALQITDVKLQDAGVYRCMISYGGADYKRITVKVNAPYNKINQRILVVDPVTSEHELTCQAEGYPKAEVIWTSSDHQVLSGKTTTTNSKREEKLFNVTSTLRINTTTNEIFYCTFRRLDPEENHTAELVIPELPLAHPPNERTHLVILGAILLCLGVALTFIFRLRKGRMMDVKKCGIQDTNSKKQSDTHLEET
# procedure.text: PD-1/PD-L1 NFAT Reporter Assay
# protocol.conditions: co-culture of PD-L1 expressing CHO cells and PD-1 overexpressing Jurkat cells, 6 hrs, NFAT luciferase
// reported EC50 for each item listed

# compound.string, tested.system, EC50
rows = [
    ("CCOC(=O)C1(C)CN(Cc2ccc(-c3cccc(-c4cccc(NC(=O)c5ccnn(C)c5=O)c4Cl)c3Cl)nc2OC)C1", "PD-1/PD-L1 interaction (Homo sapiens, UniProt Q9NZQ7)", "100 to 1000 nM"),
    ("COc1nc(-c2cccc(-c3cccc(NC(=O)c4ccnn(C)c4=O)c3C)c2Cl)ccc1CN1CC[C@@H](C(=O)O)C1", "PD-1/PD-L1 interaction (Homo sapiens, UniProt Q9NZQ7)", "10 to 100 nM"),
    ("COc1nc(-c2cccc(-c3cccc(NC(=O)c4ccnn(C)c4=O)c3Cl)c2Cl)ccc1CNC[C@H](O)C(=O)O", "PD-1/PD-L1 interaction (Homo sapiens, UniProt Q9NZQ7)", "10 to 100 nM"),
    ("COc1nc(-c2cccc(-c3cccc(NC(=O)c4ccnn(C)c4=O)c3Cl)c2Cl)ccc1CN1CCO[C@@H](C(=O)O)C1", "PD-1/PD-L1 interaction (Homo sapiens, UniProt Q9NZQ7)", "100 to 1000 nM"),
    ("COc1nc(-c2cccc(-c3cccc(NC(=O)c4ccnn(C)c4=O)c3Cl)c2Cl)cc(C)c1CNC[C@@H]1CCC(=O)N1", "PD-1/PD-L1 interaction (Homo sapiens, UniProt Q9NZQ7)", "≤ 10 nM"),
    ("COc1nc(-c2cccc(-c3cccc(NC(=O)c4ccnn(C)c4=O)c3Cl)c2Cl)ncc1CN1CC(C(=O)O)C1", "PD-1/PD-L1 interaction (Homo sapiens, UniProt Q9NZQ7)", "10 to 100 nM"),
]

---

# tested.system: PD-1/PD-L1 interaction (Homo sapiens, UniProt Q9NZQ7)
# Construct: Jurkat cells (PD-1 plus NFAT-luciferase)
# procedure.text: PD-1/PD-L1 NFAT Reporter Assay
# protocol.conditions: co-culture of PD-L1 expressing CHO cells and PD-1 overexpressing Jurkat cells, 6 hrs, NFAT luciferase
Recorded EC50 values for a group of compounds are listed next.
reported.metric: EC50

# compound.string, tested.system, reported.metric, experimental.result
data = [
    ("COc1nc(-c2cccc(-c3cccc(NC(=O)c4ccnn(C)c4=O)c3Cl)c2Cl)ccc1CN1CC(C)(C(=O)O)C1", "PD-1/PD-L1 interaction (Homo sapiens, UniProt Q9NZQ7)", "EC50", "10 to 100 nM"),
    ("COc1nc(-c2cccc(-c3cccc(NC(=O)c4ccnn(C)c4=O)c3Cl)c2Cl)ccc1CN1CCN(C(=O)OC(C)(C)C)[C@@H](C(=O)O)C1", "PD-1/PD-L1 interaction (Homo sapiens, UniProt Q9NZQ7)", "EC50", "100 to 1000 nM"),
    ("COc1nc(-c2cccc(-c3cccc(NC(=O)c4ccnn(C)c4=O)c3C)c2Cl)ccc1CN1CC(F)(C(=O)O)C1", "PD-1/PD-L1 interaction (Homo sapiens, UniProt Q9NZQ7)", "EC50", "100 to 1000 nM"),
]

---

# tested.system: PD-1/PD-L1 interaction (Homo sapiens, UniProt Q9NZQ7)
# Construct: Jurkat cells (PD-1 plus NFAT-luciferase)
# procedure.text: PD-1/PD-L1 NFAT Reporter Assay
# protocol.conditions: co-culture of PD-L1 expressing CHO cells and PD-1 overexpressing Jurkat cells, 6 hrs, NFAT luciferase
# Protocol: Blocking the PD-1/PD-L1 interaction will release the inhibitory signal and results in TCR signaling and NFAT-mediated luciferase activity. CHO cells expressing surface-bound anti-CD3 antibodies and PD-L1 were first seeded overnight and treated with the compounds. […] Luciferase activity was assessed by adding the ONE-Glo reagent and measuring luminescence with a plate reader. EC50 values were determined from the fit of the dose-response curves.
pEC50: −log10 of the molar value.
// values below are reported pEC50

# compound, tested.system, pEC50
measured = [
    ("COc1nc(-c2cccc(-c3cccc(NC(=O)c4ccnn(C)c4=O)c3Cl)c2Cl)ccc1CN1CCN(C(=O)OC(C)(C)C)[C@H](C(=O)O)C1 [Compound C-23]", "PD-1/PD-L1 interaction (Homo sapiens, UniProt Q9NZQ7)", "< 5.30"),
    ("COc1nc(-c2cccc(-c3cccc(NC(=O)c4cc(C)n[nH]c4=O)c3Cl)c2Cl)cnc1CN1CC2(CCC(=O)N2)C1 [Compound A-4]", "PD-1/PD-L1 interaction (Homo sapiens, UniProt Q9NZQ7)", "6.00 to 7.00"),
    ("CCOC(=O)CCN(Cc1ccc(-c2cccc(-c3cccc(NC(=O)c4ccnn(C)c4=O)c3Cl)c2Cl)nc1OC)C(=O)OCc1oc(=O)oc1C [Compound F-1]", "PD-1/PD-L1 interaction (Homo sapiens, UniProt Q9NZQ7)", "6.00 to 7.00"),
    ("COc1nc(-c2cccc(-c3cccc(NC(=O)c4ccnn(C)c4=O)c3Cl)c2Cl)ccc1CNC[C@H](C)O [Compound C-3]", "PD-1/PD-L1 interaction (Homo sapiens, UniProt Q9NZQ7)", "7.00 to 8.00"),
    ("COc1nc(-c2cccc(-c3cccc(NC(=O)c4ccnn(C)c4=O)c3Cl)c2Cl)ccc1CNC[C@@H](C)C(=O)O [Compound C-37]", "PD-1/PD-L1 interaction (Homo sapiens, UniProt Q9NZQ7)", "7.00 to 8.00"),
    ("CCOC(=O)[C@@H]1CN(Cc2ccc(-c3cccc(-c4cccc(NC(=O)c5ccnn(C)c5=O)c4Cl)c3Cl)nc2OC)C(=O)O1 [Compound H-1]", "PD-1/PD-L1 interaction (Homo sapiens, UniProt Q9NZQ7)", "< 5.30"),
    ("CCOC(=O)C1CN(Cc2c(C)cc(-c3cccc(-c4cccc(NC(=O)c5ccnn(C)c5=O)c4Cl)c3Cl)nc2OC)C1 [Compound C-89]", "PD-1/PD-L1 interaction (Homo sapiens, UniProt Q9NZQ7)", "7.00 to 8.00"),
    ("COc1nc(-c2cccc(-c3cccc(NC(=O)c4ccnn(C)c4=O)c3Cl)c2Cl)ccc1CN[C@@H]1CN(C(C)=O)C[C@@H]1O [Compound C-45]", "PD-1/PD-L1 interaction (Homo sapiens, UniProt Q9NZQ7)", "7.00 to 8.00"),
    ("COc1nc(-c2cccc(-c3cccc(NC(=O)c4ccnn(C)c4=O)c3C)c2Cl)ccc1CN1CC(O)C1 [Compound C-66]", "PD-1/PD-L1 interaction (Homo sapiens, UniProt Q9NZQ7)", "7.00 to 8.00"),
    ("COc1nc(-c2cccc(-c3cccc(NC(=O)c4ccnn(C)c4=O)c3Cl)c2Cl)cnc1CN1CC2(CCC(=O)N2)C1 [Compound A-1]", "PD-1/PD-L1 interaction (Homo sapiens, UniProt Q9NZQ7)", "7.00 to 8.00"),
    ("COc1nc(-c2cccc(-c3cccc(NC(=O)c4ccnn(C)c4=O)c3Cl)c2Cl)ccc1CN1C[C@H](C(=O)O)C(C)(C)C1 [Compound C-31]", "PD-1/PD-L1 interaction (Homo sapiens, UniProt Q9NZQ7)", "7.00 to 8.00"),
    ("CCOC(=O)N(Cc1ncc(-c2cccc(-c3cccc(NC(=O)c4ccnn(C)c4=O)c3C)c2Cl)nc1OC)C[C@@H]1CCC(=O)N1 [Compound D-2]", "PD-1/PD-L1 interaction (Homo sapiens, UniProt Q9NZQ7)", "< 5.30"),
    ("CCOC(=O)[C@@H]1CCN(Cc2ccc(-c3cccc(-c4cccc(NC(=O)c5ccnn(C)c5=O)c4Cl)c3Cl)nc2OC)C1 [Compound C-14]", "PD-1/PD-L1 interaction (Homo sapiens, UniProt Q9NZQ7)", "7.00 to 8.00"),
]

---

# IC50 listing for each entry below
# tested.system: PDL1/PD1 (Homo sapiens, UniProt Q9NZQ7)
# procedure.text: PDL1/PD1 Binding Assay
# protocol.conditions: PDL1-6×His 0.3 nM, PD1-Fc-Avi-Biotin 2.5 nM, Acceptor/Donor beads; read-out: PD-1/PD-L1 PPI IC50
reported.metric: IC50

# compound, tested.system, experimental.result
rows = [
    ("COc1nc(-c2cccc(-c3cccc(NC(=O)c4ccnn(C)c4=O)c3Cl)c2Cl)ccc1CN1CC(CC(=O)O)C1 [Compound C-42]", "PDL1/PD1 (Homo sapiens, UniProt Q9NZQ7)", "≤ 0.01 µM"),
    ("COc1nc(-c2cccc(-c3cccc(NC(=O)c4ccnn(C)c4=O)c3C)c2Cl)ccc1CN1CC[C@@H](C(=O)O)C1 [Compound C-58]", "PDL1/PD1 (Homo sapiens, UniProt Q9NZQ7)", "≤ 0.01 µM"),
    ("COc1nc(-c2cccc(-c3cccc(NC(=O)c4ccnn(C)c4=O)c3Cl)c2Cl)ccc1CN1CCO[C@H](C(=O)O)C1 [Compound C-44]", "PDL1/PD1 (Homo sapiens, UniProt Q9NZQ7)", "≤ 0.01 µM"),
    ("CCOC(=O)C1CN(Cc2ccc(-c3cccc(-c4cccc(NC(=O)c5ccnn(C)c5=O)c4Cl)c3Cl)nc2OC)C1 [Compound C-13]", "PDL1/PD1 (Homo sapiens, UniProt Q9NZQ7)", "≤ 0.01 µM"),
    ("COC(=O)C1CN(Cc2cc(F)c(-c3cccc(-c4cccc(NC(=O)c5ccnn(C)c5=O)c4Cl)c3Cl)nc2OC)C1 [Compound C-78]", "PDL1/PD1 (Homo sapiens, UniProt Q9NZQ7)", "≤ 0.01 µM"),
    ("COc1nc(-c2cccc(-c3cccc(NC(=O)c4ccnn(C)c4=O)c3Cl)c2Cl)ccc1CN1CC(C(=O)O)C1 [Compound C-9]", "PDL1/PD1 (Homo sapiens, UniProt Q9NZQ7)", "≤ 0.01 µM"),
    ("COc1nc(-c2cccc(-c3cccc(NC(=O)c4ccnn(C)c4=O)c3Cl)c2Cl)ccc1CN1CC[C@H](C(=O)O)C1 [Compound C-17]", "PDL1/PD1 (Homo sapiens, UniProt Q9NZQ7)", "≤ 0.01 µM"),
    ("COc1nc(-c2cccc(-c3cccc(NC(=O)c4ccnn(C)c4=O)c3Cl)c2Cl)ccc1CNC[C@H](C)C(=O)O [Compound C-36]", "PDL1/PD1 (Homo sapiens, UniProt Q9NZQ7)", "≤ 0.01 µM"),
    ("COc1nc(-c2cccc(-c3cccc(NC(=O)c4ccnn(C)c4=O)c3Cl)c2Cl)ccc1CN1CCO[C@@H](C(=O)O)C1 [Compound C-30]", "PDL1/PD1 (Homo sapiens, UniProt Q9NZQ7)", "≤ 0.01 µM"),
    ("COc1nc(-c2cccc(-c3cccc(NC(=O)c4ccnn(C)c4=O)c3C)c2Cl)ccc1CN1CC(C(=O)O)C1 [Compound C-54]", "PDL1/PD1 (Homo sapiens, UniProt Q9NZQ7)", "≤ 0.01 µM"),
    ("CCOC(=O)C1(C)CN(Cc2ccc(-c3cccc(-c4cccc(NC(=O)c5ccnn(C)c5=O)c4Cl)c3Cl)nc2OC)C1 [Compound C-21]", "PDL1/PD1 (Homo sapiens, UniProt Q9NZQ7)", "0.01 to 0.1 µM"),
    ("COc1nc(-c2cccc(-c3cccc(NC(=O)c4ccnn(C)c4=O)c3Cl)c2Cl)ccc1CN[C@@H](C)C(=O)O [Compound C-29]", "PDL1/PD1 (Homo sapiens, UniProt Q9NZQ7)", "≤ 0.01 µM"),
    ("COc1nc(-c2cccc(-c3cccc(NC(=O)c4ccnn(C)c4=O)c3Cl)c2Cl)c(F)cc1CN[C@@H]1CCOC[C@@H]1O [Compound C-75]", "PDL1/PD1 (Homo sapiens, UniProt Q9NZQ7)", "≤ 0.01 µM"),
]
